# experimental-system: T1, 4H3638-bN
# T1 chain: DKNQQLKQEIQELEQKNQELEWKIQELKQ
# method-notes: two-hybrid library CCNG1;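 also: natural log of median RNA to DNA barcode read ratio; higher means stronger binding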
measurement-kind: interaction score

A selection of reference data follows.
Inquiry: Item DKNQQLEQKIQELKQENQELEWKIQELKQ [4H3414-bN] has what recorded interaction score?
Reply text: -1.41

Inquiry: Item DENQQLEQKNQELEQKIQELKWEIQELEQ [4H1449-bN] has what recorded interaction score?
Reply text: -1.08

(a) DENQQLKQKNQELKQEIQELEWEIQELEQ [4H1985-bN]
(b) DKNQQLKQEIQELEQKNQELEWKIQELKQ [4H3638-bN]
(c) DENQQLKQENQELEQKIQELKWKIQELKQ [4H1710-bN]
(d) DKNQQLEQEIQELKQKIQELEWENQELKQ [4H3172-bN]
Inquiry: Sort the binders on interaction score; start with the lowest figure. Rank them, then answer with their labels in that order.
Reply text: a, d, c, b
(a: -1.17, d: -0.362, c: -0.0052, b: 0.732)

// provenance: paper PMC10397247
